# system name: recombinant Mcl-1 (residues 172-327) (Homo sapiens (Human), UniProt Q07820)
# Sequence (Q07820 172-327): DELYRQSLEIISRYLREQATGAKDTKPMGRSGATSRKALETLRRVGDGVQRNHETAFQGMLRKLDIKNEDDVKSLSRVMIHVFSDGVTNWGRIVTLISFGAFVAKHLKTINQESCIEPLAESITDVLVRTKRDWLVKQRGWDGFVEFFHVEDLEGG
# test name: Bak peptide fluorescence polarization anisotropy competition assay, Mcl-1
# Type: binding
# condition context: read-out: Ki for inhibition of Mcl-1
result type: Ki

Take a look at these entries with their results.
* Cc1cc(OCCCc2c(C(=O)NS(=O)(=O)CCNC(=O)c3cccc(Oc4ccccc4)c3)[nH]c3cc(Cl)ccc23)cc(C)c1Cl [Example 231] | 101 to 299 nM
* Cc1cc(OCCCc2c(C(=O)NS(=O)(=O)c3ccc(OCc4ccccc4)cc3)n(Cc3cccnc3)c3cc(Cl)ccc23)cc(C)c1Cl [Example 274] | 1000 to 9990 nM
* Cc1cc(OCCCc2c(C(=O)NS(=O)(=O)CCCN3C(=O)c4ccccc4C3=O)[nH]c3cc(Cl)ccc23)cc(C)c1Cl [Example 256] | 501 to 999 nM
* Cc1cc(OCCCc2c(C(=O)NS(C)(=O)=O)[nH]c3c(C)c(Br)ccc23)cc(C)c1Cl [Example 120] | 1000 to 9990 nM
* Cc1cc(OCCCc2c(C(=O)NS(=O)(=O)CCNC(=O)CCc3ccccc3)[nH]c3ccccc23)cc(C)c1Cl [Example 164] | 101 to 299 nM

stdin: Which value of Ki has been reported for Cc1cc(OCCCc2c(C(=O)NS(=O)(=O)CCNC(=O)c3cccn3Cc3ccccc3)[nH]c3cc(Cl)ccc23)cc(C)c1Cl [Example 241] in the records?
stdout: 101 to 299 nM

stdin: Here is the next compound: Cc1cc(OCCCc2c(C(=O)NS(=O)(=O)CCNC(=O)c3ccccc3F)[nH]c3ccccc23)cc(C)c1Cl [Example 160]
stdout: 301 to 500 nM

These entries and their values trace back to patent US10844032B2.
